In this section we review reported solubility values for a set of molecules.
- Experiment summary: Determination of drug solubility in aqueous and organic solvent;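 also: solid drug suspended at 50 mg/mL nominal in each solvent, vortexed and sonicated, then dissolved concentration in filtered supernatant quantified by HPLC against a calibration curve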
- Assay type: physicochemical
- Condition context: thermodynamic from solid; Table 3A; water; drug added to 50 mg/mL; read-out: Solubility Water
Structures can show the parent of a compound that is named as a salt.
Measurement type: solubility

- Molecule: "CCN[C@H]1C[C@H](C)S(=O)(=O)c2sc(S(N)(=O)=O)cc21 [Dorzolamide, reference compound]"
  Readout value: "> 50000 µg/mL"
- Molecule: "CCCCCCCCCCCCCCCCCC(=O)O[C@@H](C)C(=O)O[C@@H](C)C(=O)O[C@@H](C)C(=O)O[C@@H](C)C(=O)NS(=O)(=O)c1cc2c(s1)S(=O)(=O)C(C)CC2NCC (stereo partly shown) [Compound 12-3]"
  Readout value: "< 100 µg/mL"
- Molecule: "CCN(CC)CCNC(=O)c1c(C)[nH]c(/C=C2\\C(=O)Nc3ccc(N)cc32)c1C [5-Amino Sunitinib, reference compound]"
  Readout value: "< 1000 µg/mL"
- Molecule: "CCCCCCCCCCCCCCCCCC(=O)O[C@@H](C)C(=O)O[C@@H](C)C(=O)O[C@@H](C)C(=O)O[C@@H](C)C(=O)N1CCN=C1Nc1ccc2nccnc2c1Br [Compound 29-2]"
  Readout value: "< 1000 µg/mL"
- Molecule: "CC(=O)O[C@@H](C)C(=O)O[C@@H](C)C(=O)N1CCN=C1Nc1ccc2nccnc2c1Br [Compound 25-2]"
  Readout value: "< 1000 µg/mL"
- Molecule: "CC(=O)O[C@@H](C)C(=O)O[C@@H](C)C(=O)N1CCN(C(=O)[C@H](C)OC(=O)[C@H](C)OC(C)=O)C1=Nc1ccc2nccnc2c1Br [Compound 111-4, Brimonidine-bis-acetyl PLA(n=2)]"
  Readout value: "< 1000 µg/mL"
- Molecule: "CC(C)OC(=O)CCC/C=C\\C[C@@H]1[C@@H](CC[C@@H](O)CCc2ccccc2)[C@H](O)C[C@@H]1O [Latanoprost, reference compound]"
  Readout value: "< 1000 µg/mL"
- Molecule: "CC(=O)O[C@@H](C)C(=O)O[C@@H](C)C(=O)O[C@@H](C)C(=O)N1CCN=C1Nc1ccc2nccnc2c1Br [Compound 26-2]"
  Readout value: "< 1000 µg/mL"
- Molecule: "CC(=O)O[C@H](C)C(=O)O[C@@H](CNC(C)(C)C)COc1nsnc1N1CCOCC1.O=C(O)/C=C\\C(=O)O [Compound 44-2, Timolol-acetyl PLA (n=1) maleate]"
  Readout value: "< 1000 µg/mL"
- Molecule: "CCCCCCCCCCCCCCCCCC(=O)O[C@@H](C)C(=O)O[C@@H](C)C(=O)O[C@@H](C)C(=O)O[C@@H](C)C(=O)O[C@@H](C)C(=O)O[C@@H](C)C(=O)O[C@@H](CNC(C)(C)C)COc1nsnc1N1CCOCC1 [Compound 42-2, maleate]"
  Readout value: "< 1000 µg/mL"
- Molecule: "CC(=O)N(C[C@@H](COc1nsnc1N1CCOCC1)OC(=O)OC(C)(C)C)C(C)(C)C [Compound 37-2, Timolol-O-Boc-N-acetate]"
  Readout value: "< 1000 µg/mL"
- Molecule: "CC(=O)O[C@@H](C)C(=O)O[C@@H](C)C(=O)N1CCN(C(C)=O)C1=Nc1ccc2nccnc2c1Br [Compound 114-4, Brimonidine-acetyl PLA(n=2)-N-Acetate]"
  Readout value: "1000 µg/mL"
- Molecule: "CC(=O)O[C@@H](C)C(=O)O[C@@H](C)C(=O)O[C@@H](C)C(=O)O[C@@H](C)C(=O)O[C@@H](C)C(=O)O[C@@H](C)C(=O)O[C@@H](C)C(=O)O[C@@H](C)C(=O)N1CCN=C1Nc1ccc2nccnc2c1Br [Compound 109-1, Brimonidine-acetyl PLA(n=8)]"
  Readout value: "< 100 µg/mL"
